# SYSTEM_UNDER_TEST: T1, A33 antigen (full-length human A33) (human, UniProt Q99795 22-319)
# T1 construct: Class I cell membrane protein of the Ig superfamily; also called GPA33; human A33 antigen
# T1 sequence: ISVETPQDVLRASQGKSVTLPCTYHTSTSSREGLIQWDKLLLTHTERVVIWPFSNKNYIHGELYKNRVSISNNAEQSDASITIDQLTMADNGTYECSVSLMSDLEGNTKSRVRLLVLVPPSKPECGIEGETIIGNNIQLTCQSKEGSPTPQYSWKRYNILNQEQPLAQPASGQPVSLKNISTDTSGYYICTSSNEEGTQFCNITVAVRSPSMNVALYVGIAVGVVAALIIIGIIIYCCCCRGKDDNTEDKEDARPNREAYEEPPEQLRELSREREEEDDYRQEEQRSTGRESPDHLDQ
# PROTOCOL: FCM on COLO205 cells; grade = ng/ml to reach half MFI 45 (+++ 10<=x<100, ++ 100<=x<1000, + 1000<=x<10000)
READOUT_TYPE: antibody concentration required to reach half value of the mean fluorescence intensity

Study these solved cases before continuing.
BINDER	REPORTED_VALUE
recQ54 (antibody, V domains shown, also called recQ54 antibody; Q54 recombinant antibody) VH: EVQLLESGGGLVQPGGSLRLSCAASGFTFSSYAMSWVRQAPGKGLEWVSDISGSGGYTYYADSVKGRFTISRDNSKNTLYLQMNSLRAEDTAVYYCAKTGDGSGSYSPDSWGQGTLVTVSS VL: DIQMTQSPSSLSASVGDRVTITCRASQGISRWLAWYQQKPEKAPKSLIYAASSLQSGVPSRFSGSGSGTDFTLTISSLQPEDFATYYCQQYNSYPYTFGQGTKLEIK	10 to 100 ng/mL
rec263 (antibody, V domains shown, also called rec263 antibody; rec263A1) VH: EVQLLESGGGLVQPGGSLRLSCAASGFTFSSYAMSWIRQAPGKGLEWVSAISASGGSTYYADSVKGRFTISRDNSKNTLYLQMNSLRAEDTAVYYCAKDRIVGATNYYYGMDVWGQGTTVTVSS VL: DIQMTQSPPSVSASVGDRVTITCRASQGISSWLAWYQHKPGKAPKLLIYGASSLQSGVPSRFSGSGSGTDFTLTISSLQPEDFATYYCQQANSFPITFGQGTRLEIK	100 to 1000 ng/mL

Now look at this one.
Exercise: Which antibody concentration required to reach half value of the mean fluorescence intensity value belongs to recN26 (antibody, V domains shown, also called recN26 antibody; N26 recombinant antibody) VH: QVQLVESGGGVVQPGRSLRLSCAASGFTFSHYGMHWVRQAPGKGLEWVALIWYDGSNKYYADSVKGRFTISRDNSKNTLYLQMNSLRAEDTAVYYCARDPLAAGTSYFDYWGQGTLVTVSS VL: EIVLTQSPDFQSVTPKEKVTITCRASQSIGSSLHWYQQKPDQSPKLLIKYASQSFSGVPSRFSGSGSGTDFTLTINSLEAEDAAAYYCHQSSSLPFTFGPGTKVDIK ?
Solution: 100 to 1000 ng/mL
